test system: corticotropin releasing factor 1 receptor
experiment summary: cell-based or functional assay
Ends that are not written are not given here.
readout label: CRF1R EC50

Example cases with answers are listed next.
ZGPPISIDLPIKLLRKMIEIEKQEKEKQQAANNRLLLDTI (C-terminal amide) [SEQ ID NO 34] | > 1000 nM
IVLSLDVPIGLLQILLEQEKQEAAREQATTNARILARV-NH2 [SEQ ID NO 125] | > 100 nM
ZGPPISIDLSLELLRKMIEQARARAAREQATTNARILARV (C-terminal amide) [SEQ ID NO 156] | > 100 nM
IVLSLDVPIGLLQILLEQAAREQATTNARILARV-NH2 [SEQ ID NO 138] | > 100 nM

Here's the next entry for you.
IN: Item under review: IVLSLDVPIGLLQILLEQAKQEAAREQATTNARILARV-NH2 [SEQ ID NO 124] . Reported CRF1R EC50?
OUT: > 100 nM
